Source of measurements: ChEMBL document CHEMBL1157746

Listing: MIC of selected molecules
system: Staphylococcus aureus; assay: Antibacterial activity against methicillin-resistant Staphylococcus aureus SR-3637 clinical isolate after 20 hrs by two fold microdilution broth method; assay type: functional; conditions: SR3637, 20 h

Worked set:
CCCCCCCCCCCCCCCC(=O)N1[C@H](C(=O)OC)[C@@H]([C@H]2O[C@@H](n3ccc(=O)[nH]c3=O)[C@H](O)[C@@H]2O)O[C@@H]1CCCN.Cl    8 µg/mL
CCCCCCCCCCCCCCCC(=O)N1[C@H](C(=O)OC)[C@@H]([C@H]2O[C@@H](n3ccc(=O)[nH]c3=O)[C@H](O)[C@@H]2O)O[C@@H]1CCCN=[N+]=[N-]    > 64 µg/mL
CCCCCCCCCCCCNC(=O)N[C@H](C(=O)O)[C@H](O[C@@H]1O[C@H](CN)[C@@H](O)[C@H]1O)[C@H]1O[C@@H](n2ccc(=O)[nH]c2=O)[C@H](O)[C@@H]1O.O=C(O)C(F)(F)F    > 64 µg/mL
CCCCCCCCCCCC(=O)N[C@H](C(=O)O)[C@H](O[C@@H]1O[C@H](CN)[C@@H](O)[C@H]1O)[C@H]1O[C@@H](n2ccc(=O)[nH]c2=O)[C@H](O)[C@@H]1O.O=C(O)C(F)(F)F    > 64 µg/mL

Query for Staphylococcus aureus: what MIC does the record show for CCCCCCCCCCCCCCCC(=O)N1[C@H](C(=O)OC)[C@@H]([C@H]2O[C@@H](n3ccc(=O)[nH]c3=O)[C@H](O)[C@@H]2O)O[C@@H]1CCN.Cl ? 8 µg/mL

====

Molecular target: Phospho-N-acetylmuramoyl-pentapeptide-transferase (Bacillus subtilis (strain 168), UniProt Q03521)
Sequence (Q03521 whole entry): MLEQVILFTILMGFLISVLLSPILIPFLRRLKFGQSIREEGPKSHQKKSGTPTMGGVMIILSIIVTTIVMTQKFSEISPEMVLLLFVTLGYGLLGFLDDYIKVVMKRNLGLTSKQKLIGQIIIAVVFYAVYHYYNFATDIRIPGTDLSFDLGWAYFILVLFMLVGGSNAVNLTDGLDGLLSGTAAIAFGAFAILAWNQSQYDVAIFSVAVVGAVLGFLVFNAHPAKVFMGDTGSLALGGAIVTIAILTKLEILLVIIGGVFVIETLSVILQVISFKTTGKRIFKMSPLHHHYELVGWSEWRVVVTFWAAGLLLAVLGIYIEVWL
Test: Inhibition of Bacillus subtilis MraY after 30 mins using UDP-MurNAc-pentapeptide as substrate
Observation type: pIC50
// pIC50: -log10(molar conc.)

CCCCCCCCc1ccc(NC(=O)N[C@H](C(=O)O)[C@H](O[C@@H]2O[C@H](CN)[C@@H](O)[C@H]2O)[C@@H]2O[C@@H](n3ccc(=O)[nH]c3=O)[C@H](O)[C@@H]2O)cc1.O=C(O)C(F)(F)F    4.12
CCCCCCCCCCCC(=O)N[C@H](C(=O)O)[C@H](O[C@@H]1O[C@H](CN)[C@@H](O)[C@H]1O)[C@H]1O[C@@H](n2ccc(=O)[nH]c2=O)[C@H](O)[C@@H]1O.O=C(O)C(F)(F)F    4.20

Here's the next entry for you.
Reported pIC50 for CCCCCCCCCCCCNC(=O)[C@@H](N)[C@H](O[C@@H]1O[C@H](CN)[C@@H](O)[C@H]1O)[C@H]1O[C@@H](n2ccc(=O)[nH]c2=O)[C@H](O)[C@@H]1O.O=C(O)C(F)(F)F : what is it? 4.74
